Please go through the items and note down their pIC50.
- System: Blood
- Assay Text: Antiinflammatory activity in BALB/c mouse whole blood assessed as inhibition of LPS-induced TNFalpha production by ELISA
- Assay type: functional, tissue-based
Note on units: pIC50 is unitless, being -log10 of a concentration expressed in mol/L.

Exercise: I have this compound here, `CN(C[C@@H]1CCCN1)C(=O)c1ccc(-c2cnc3ccc(NCC4CC4)nn23)cc1` , and I need its recorded pIC50.
Solution: 5.72

Exercise: Could you do the same for `CN(C[C@@H]1C[C@@H](F)CN1)C(=O)c1ccc(-c2cnc3ccc(NCC4CC4)nn23)cc1` , please?
Solution: 6.32

Exercise: What do you get for `CN(C)CCNC(=O)c1ccc(-c2cnc3ccc(NCC4CC4)nn23)cc1` ?
Solution: 6.10

Exercise: Here is the next compound: `O=C(c1ccc(-c2cnc3ccc(NCC4CC4)nn23)cc1)N(C/C=C/c1ccccc1)C[C@@H]1C[C@@H](F)CN1`
Solution: 6.02

Exercise: Next record, please: `CC(=O)Nc1ccc(CN(C[C@@H]2C[C@@H](F)CN2)C(=O)c2ccc(-c3cnc4ccc(NCC5CC5)nn34)cc2)cc1`
Solution: 5.57

Exercise: Entry to check: `CO[C@H]1CN[C@H](CNC(=O)c2ccc(-c3cnc4ccc(NCC5CC5)nn34)cc2)C1`
Solution: 5.57

Exercise: One more compound: `O=C(NC[C@@H]1CCCN1)c1ccc(-c2cnc3ccc(NCC4CC4)nn23)cc1`
Solution: 5.17

Exercise: Also need `CCCN(C[C@@H]1C[C@@H](F)CN1)C(=O)c1ccc(-c2cnc3ccc(NCC4CC4)nn23)cc1` , thanks.
Solution: 6.77

====

- Assay Text: Metabolic stability of the compound in mouse liver microsomes assessed as compound remaining at 1 uM after 30 mins
- Assay type: ADME, Microsome
- Condition Notes: read-out: Stability
Measured Metric: remaining at 0.5 h, 1 µM (%)
Return type: number; implicit unit %.

Exercise: Quick check: remaining at 0.5 h, 1 µM of `CN(C)CCNC(=O)c1ccc(-c2cnc3ccc(NCC4CC4)nn23)cc1` ?
Solution: 71

Exercise: What do we get for `CN(C[C@@H]1C[C@@H](F)CN1)C(=O)c1ccc(-c2cnc3ccc(NCC4CC4)nn23)cc1` ?
Solution: 50

Exercise: Please give the result for `O=C(c1ccc(-c2cnc3ccc(NCC4CC4)nn23)cc1)N(Cc1ccc(Cl)cc1)C[C@@H]1C[C@@H](F)CN1` too.
Solution: 28

Exercise: Moving on to the next compound: `CCCN(C[C@@H]1C[C@@H](F)CN1)C(=O)c1ccc(-c2cnc3ccc(NCC4CC4)nn23)cc1`
Solution: 33

Exercise: Quick one: `CCN(C[C@@H]1C[C@@H](F)CN1)C(=O)c1ccc(-c2cnc3ccc(NCC4CC4)nn23)cc1`
Solution: 33

Exercise: Quick one: `O=C(c1ccc(-c2cnc3ccc(NCC4CC4)nn23)cc1)N(Cc1cccc(Cl)c1)C[C@@H]1C[C@@H](F)CN1`
Solution: 7

Exercise: Cool, now `O=C(NC[C@@H]1CCCN1)c1ccc(-c2cnc3ccc(NCC4CC4)nn23)cc1`
Solution: 77

====

Would you mind telling me the reported pIC50 of each entry?
- Tested on: Blood
- Assay Text: Antiinflammatory activity in BALB/c mouse whole blood assessed as inhibition of LPS-induced TNFalpha production by ELISA
- Format: functional, tissue-based
Convention used: pIC50 is expressed as -log10 of the molar concentration.

Exercise: Please give the measured pIC50 for this compound: `O=C(c1ccc(-c2cnc3ccc(NCC4CC4)nn23)cc1)N(Cc1ccccc1)C[C@@H]1C[C@@H](F)CN1`
Solution: 6.40

Exercise: Now the same for `O=C(O)CN(C[C@@H]1C[C@@H](F)CN1)C(=O)c1ccc(-c2cnc3ccc(NCC4CC4)nn23)cc1`
Solution: 5.41

Exercise: Check `O=C(NC[C@@H]1C[C@@H](F)CN1)c1ccc(-c2cnc3ccc(NCC4CC4)nn23)cc1` too.
Solution: 6.24

Exercise: Thanks! And `O=C(c1ccc(-c2cnc3ccc(NCC4CC4)nn23)cc1)N(Cc1ccc(Cl)cc1)C[C@@H]1C[C@@H](F)CN1` ?
Solution: 5.92

Exercise: Now the compound `O=C(c1ccc(-c2cnc3ccc(NCC4CC4)nn23)cc1)N(CCO)C[C@@H]1C[C@@H](F)CN1`
Solution: 6.17

Exercise: Follow-up item: `CO[C@H]1CCN[C@@H]1CNC(=O)c1ccc(-c2cnc3ccc(NCC4CC4)nn23)cc1`
Solution: 5.68

Exercise: Quick one: `CCN(C[C@@H]1C[C@@H](F)CN1)C(=O)c1ccc(-c2cnc3ccc(NCC4CC4)nn23)cc1`
Solution: 6.64

Exercise: Thanks! And `O=C(NC[C@H]1NCC[C@@H]1F)c1ccc(-c2cnc3ccc(NCC4CC4)nn23)cc1` ?
Solution: 5.92

Exercise: Thanks! And `O=C(c1ccc(-c2cnc3ccc(NCC4CC4)nn23)cc1)N(Cc1cccc(Cl)c1)C[C@@H]1C[C@@H](F)CN1` ?
Solution: 6.23

====

- Assay Text: Membrane permeability at pH 7.4 by PAMPA assay
- Assay type: ADME
- Condition Notes: read-out: permeability
Param label: returns Satisfied when Papp < 20 ×10⁻⁶ cm/s, returns Not satisfied otherwise, including exact equality.

Exercise: # TODO verify Papp < 20 ×10⁻⁶ cm/s strictly for this compound: `CCN(C[C@@H]1C[C@@H](F)CN1)C(=O)c1ccc(-c2cnc3ccc(NCC4CC4)nn23)cc1`
Solution: Not satisfied

Exercise: Param item: `O=C(c1ccc(-c2cnc3ccc(NCC4CC4)nn23)cc1)N(Cc1ccccc1)C[C@@H]1C[C@@H](F)CN1`
Solution: Not satisfied

Exercise: Then what about the compound `CO[C@H]1CN[C@H](CNC(=O)c2ccc(-c3cnc4ccc(NCC5CC5)nn34)cc2)C1` ?
Solution: Satisfied

Exercise: Field entry: `O=C(c1ccc(-c2cnc3ccc(NCC4CC4)nn23)cc1)N(CCO)C[C@@H]1C[C@@H](F)CN1`
Solution: Satisfied

Exercise: # repeat for `CC(=O)Nc1ccc(CN(C[C@@H]2C[C@@H](F)CN2)C(=O)c2ccc(-c3cnc4ccc(NCC5CC5)nn34)cc2)cc1`
Solution: Satisfied

Exercise: Same question, `O=C(NC[C@@H]1C[C@@H](F)CN1)c1ccc(-c2cnc3ccc(NCC4CC4)nn23)cc1` this time
Solution: Not satisfied

Exercise: Continue with `CCCN(C[C@@H]1C[C@@H](F)CN1)C(=O)c1ccc(-c2cnc3ccc(NCC4CC4)nn23)cc1`
Solution: Not satisfied

Exercise: Also check `O=C(O)c1ccc(CN(C[C@@H]2C[C@@H](F)CN2)C(=O)c2ccc(-c3cnc4ccc(NCC5CC5)nn34)cc2)cc1`
Solution: Satisfied

Exercise: Would you kindly repeat that for `CN(C[C@@H]1CCCN1)C(=O)c1ccc(-c2cnc3ccc(NCC4CC4)nn23)cc1` ?
Solution: Satisfied

Exercise: And then `CN(C[C@@H]1C[C@@H](F)CN1)C(=O)c1ccc(-c2cnc3ccc(NCC4CC4)nn23)cc1` , what is it?
Solution: Not satisfied

Exercise: One more compound: `O=C(O)CN(C[C@@H]1C[C@@H](F)CN1)C(=O)c1ccc(-c2cnc3ccc(NCC4CC4)nn23)cc1`
Solution: Satisfied

Exercise: Next: `O=C(c1ccc(-c2cnc3ccc(NCC4CC4)nn23)cc1)N(Cc1ccc(Cl)cc1)C[C@@H]1C[C@@H](F)CN1`
Solution: Not satisfied

Exercise: What do you have for `O=C(c1ccc(-c2cnc3ccc(NCC4CC4)nn23)cc1)N(C/C=C/c1ccccc1)C[C@@H]1C[C@@H](F)CN1` ?
Solution: Not satisfied

Exercise: Another compound to check: `O=C(NC[C@@H]1CCCN1)c1ccc(-c2cnc3ccc(NCC4CC4)nn23)cc1`
Solution: Satisfied

Exercise: Another compound to check: `CN(C)CCNC(=O)c1ccc(-c2cnc3ccc(NCC4CC4)nn23)cc1`
Solution: Not satisfied

Exercise: Quick one: `O=C(c1ccc(-c2cnc3ccc(NCC4CC4)nn23)cc1)N(Cc1cccc(Cl)c1)C[C@@H]1C[C@@H](F)CN1`
Solution: Not satisfied

Exercise: Now try `CO[C@H]1CCN[C@@H]1CNC(=O)c1ccc(-c2cnc3ccc(NCC4CC4)nn23)cc1` .
Solution: Satisfied

====

- Measurement Target: Inhibitor of nuclear factor kappa-B kinase subunit beta (Homo sapiens, UniProt O14920)
- Sequence (O14920 whole entry): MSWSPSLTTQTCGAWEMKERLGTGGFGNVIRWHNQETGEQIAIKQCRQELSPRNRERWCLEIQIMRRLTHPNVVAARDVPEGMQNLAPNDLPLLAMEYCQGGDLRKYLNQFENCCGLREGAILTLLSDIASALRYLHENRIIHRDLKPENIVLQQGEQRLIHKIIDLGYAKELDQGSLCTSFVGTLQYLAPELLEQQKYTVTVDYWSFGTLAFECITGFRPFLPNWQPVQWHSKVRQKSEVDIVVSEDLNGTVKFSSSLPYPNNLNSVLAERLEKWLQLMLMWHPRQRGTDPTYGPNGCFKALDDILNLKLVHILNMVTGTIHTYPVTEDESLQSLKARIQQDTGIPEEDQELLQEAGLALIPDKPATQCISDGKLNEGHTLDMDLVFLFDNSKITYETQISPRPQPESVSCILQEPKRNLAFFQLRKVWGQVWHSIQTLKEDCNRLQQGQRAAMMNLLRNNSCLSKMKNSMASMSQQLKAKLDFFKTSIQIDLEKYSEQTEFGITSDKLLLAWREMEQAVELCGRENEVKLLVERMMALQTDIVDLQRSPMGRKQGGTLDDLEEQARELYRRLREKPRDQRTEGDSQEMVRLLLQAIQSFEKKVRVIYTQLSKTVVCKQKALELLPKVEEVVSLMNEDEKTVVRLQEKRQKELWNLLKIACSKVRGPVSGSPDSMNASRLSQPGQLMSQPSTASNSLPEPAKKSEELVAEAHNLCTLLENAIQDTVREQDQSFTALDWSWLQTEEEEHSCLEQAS
- Assay Text: Inhibition of purified His-tagged IKK-beta after 15 mins
Measured Metric: log10 IC50 (log10 of the value in nM)
Answers are given as log10 of IC50 in nM.

Exercise: Please give the measured log10 IC50 for this molecule: `CCCN(C[C@@H]1C[C@@H](F)CN1)C(=O)c1ccc(-c2cnc3ccc(NCC4CC4)nn23)cc1`
Solution: 1.20

Exercise: `CO[C@H]1CN[C@H](CNC(=O)c2ccc(-c3cnc4ccc(NCC5CC5)nn34)cc2)C1` , same question.
Solution: 1.85

Exercise: Item: `O=C(NC[C@H]1NCC[C@@H]1F)c1ccc(-c2cnc3ccc(NCC4CC4)nn23)cc1`
Solution: 1.32

Exercise: Field entry: `CN(C[C@@H]1C[C@@H](F)CN1)C(=O)c1ccc(-c2cnc3ccc(NCC4CC4)nn23)cc1`
Solution: 1.62

Exercise: Let us now turn to `O=C(c1ccc(-c2cnc3ccc(NCC4CC4)nn23)cc1)N(Cc1ccccc1)C[C@@H]1C[C@@H](F)CN1`
Solution: 1.08

Exercise: Next record, please: `O=C(O)CN(C[C@@H]1C[C@@H](F)CN1)C(=O)c1ccc(-c2cnc3ccc(NCC4CC4)nn23)cc1`
Solution: 2.04

Exercise: Param item: `O=C(c1ccc(-c2cnc3ccc(NCC4CC4)nn23)cc1)N(C/C=C/c1ccccc1)C[C@@H]1C[C@@H](F)CN1`
Solution: 1.11

Exercise: Another molecule to look at: `CC(=O)Nc1ccc(CN(C[C@@H]2C[C@@H](F)CN2)C(=O)c2ccc(-c3cnc4ccc(NCC5CC5)nn34)cc2)cc1`
Solution: 1.18

Exercise: And the next one, `O=C(c1ccc(-c2cnc3ccc(NCC4CC4)nn23)cc1)N(Cc1ccc(Cl)cc1)C[C@@H]1C[C@@H](F)CN1` ?
Solution: 1.23

Exercise: Similarly, `O=C(c1ccc(-c2cnc3ccc(NCC4CC4)nn23)cc1)N(CCO)C[C@@H]1C[C@@H](F)CN1` ?
Solution: 1.18

Exercise: What do you have for `CN(C[C@@H]1CCCN1)C(=O)c1ccc(-c2cnc3ccc(NCC4CC4)nn23)cc1` ?
Solution: 1.99

Exercise: Consider next the molecule `CCN(C[C@@H]1C[C@@H](F)CN1)C(=O)c1ccc(-c2cnc3ccc(NCC4CC4)nn23)cc1` in the same way.
Solution: 1.26

Exercise: Now consider `O=C(NC[C@@H]1C[C@@H](F)CN1)c1ccc(-c2cnc3ccc(NCC4CC4)nn23)cc1` .
Solution: 1.34

Exercise: Item: `O=C(c1ccc(-c2cnc3ccc(NCC4CC4)nn23)cc1)N(Cc1cccc(Cl)c1)C[C@@H]1C[C@@H](F)CN1`
Solution: 1.23

Exercise: Quick one: `O=C(O)c1ccc(CN(C[C@@H]2C[C@@H](F)CN2)C(=O)c2ccc(-c3cnc4ccc(NCC5CC5)nn34)cc2)cc1`
Solution: 1.23

Exercise: Another molecule: `O=C(c1ccc(-c2cnc3ccc(NCC4CC4)nn23)cc1)N(C[C@@H]1C[C@@H](F)CN1)c1ccccc1`
Solution: 3.86

Exercise: How about `CO[C@H]1CCN[C@@H]1CNC(=O)c1ccc(-c2cnc3ccc(NCC4CC4)nn23)cc1` ?
Solution: 1.36
